Where these numbers come from: patent US20250263370A1

system.name: BRD4 BD2 (Homo sapiens (Human), UniProt O60885)
assay.text: NanoBRET bromodomain assay, NanoLuc-BRD4-BD2 fusion in HEK293 cells
experimental.parameters: IC50 for BRD4 BD1 divided by IC50 for BRD4 BD2; qualitative if an IC50 is at the upper limit
property.name: Fold selectivity

Exercise: Write down Fold selectivity measured for item CCNC(=O)c1cc(OC(C)c2ccc(C)cc2)c(C(=O)NC)[nH]1 (single isomer, unassigned) [Example 26]
Solution: — (Fold ≥0 and ≤2)

Exercise: Give me measured Fold selectivity, please, for this compound: CCNC(=O)c1cc(OC(C)c2ccc(OC)cc2)c(C(=O)NC)[nH]1 (single isomer, unassigned) [Example 75]
Solution: XX (Fold >50 and ≤200)

Exercise: Determine its reported Fold selectivity: `CNC(=O)c1[nH]c(C(=O)N[C@@H]2CCOC2)cc1O[C@@H](C)c1ccccc1`
Solution: X (Fold >2 and ≤50)

Exercise: Return value of Fold selectivity for input CCNC(=O)c1cc(OC(C)c2ccc(Br)cc2)c(C(=O)NC)[nH]1 (single isomer, unassigned) [Example 49] , no commentary.
Solution: XXX (Fold >200)

Exercise: Return reported Fold selectivity. Input compound: CNC(=O)c1[nH]c(C(=O)NC2CCC2)cc1OC(C)c1ccc(Cl)cc1 (single isomer, unassigned) [Example 27]
Solution: XXX (Fold >200)

Next:
Exercise: Retrieve Fold selectivity measured for CNC(=O)c1[nH]c(C(=O)NC2CCC2)cc1OC(C)c1ccccc1 (single isomer, unassigned) and print it.
Solution: — (Fold ≥0 and ≤2)

Exercise: Look up and report measured Fold selectivity for this entry: `CNC(=O)c1[nH]c(C(=O)NC2CC2)cc1O[C@@H](C)c1ccccc1`
Solution: XX (Fold >50 and ≤200)

Exercise: Give a short answer stating reported Fold selectivity for CCNC(=O)c1cc(OC(c2ccccc2)C2CC2)c(C(=O)NC)[nH]1 (racemic) .
Solution: — (Fold ≥0 and ≤2)

Exercise: Supply measured Fold selectivity of CCNC(=O)c1cc(OC(C)c2ccc(OC)cc2)c(C(=O)NC)[nH]1 (single isomer, unassigned) [Example 76] in your reply.
Solution: — (Fold ≥0 and ≤2)

Exercise: For CCNC(=O)c1cc(OC(C)c2ccc(I)cc2)c(C(=O)NC)[nH]1 (single isomer, unassigned) [Example 51] , write its Fold selectivity.
Solution: XXX (Fold >200)

###

assay.text: Beagle dog PK study 1 of Example 101 (propylene glycol-based formulation, IV and PO), with clinical observations
Format: in vivo
experimental.parameters: beagle, dog, plasma, po, 5 mg/kg, dog PK study 1, oral, Test Animal 2; read-out: MRTInf—obs
Protocol: The purpose of this study was to examine the pharmacokinetics of Example 101 in beagle dogs. […] An oral PK study was also undertaken in Lewis rats—see Experimental Method C. Body weight was recoded prior to dosing, and detailed clinical observations were made prior to dosing and throughout the study, as needed. Subsequently, 17.320 mL Vitamin E TPGS was added, and the solution was vortexed and sonicated. Then, 51.960 mL water was added, and solution was then heated. […]
property.name: MRT inf (h)
Report the value in h with no unit label.

Exercise: // Input: CNC(=O)c1[nH]c(C(=O)NC2CCC2)cc1O[C@@H](C)c1ccccc1 (stereo in doubt) . Output its MRT inf only.
Solution: 1.62

###

assay.text: Beagle dog PK study 2 of Example 101 (HPβCD based formulation, IV), with clinical observations
Assay type: in vivo
experimental.parameters: beagle, dog, plasma, iv, 1 mg/kg, dog PK study 2, IV 1 mg/kg, HPβCD, 4 h, mean; read-out: Average plasma concentration, Mean
property.name: concentration at 4 h (ng/mL)
State just the number; it will be interpreted in ng/mL.

Exercise: Name the recorded concentration at 4 h of the item CNC(=O)c1[nH]c(C(=O)NC2CCC2)cc1O[C@@H](C)c1ccccc1 (stereo in doubt) in your answer.
Solution: 19.2

###

assay.text: Pharmacokinetics and plasma concentration of Example 101 in Lewis rats after oral administration (CIA study)
Format: in vivo, Lewis rat
experimental.parameters: Lewis, rat, plasma, oral, 10 mg/kg, plasma, oral, day 0, 10 mg/kg, 24 h
property.name: concentration at 24 h (ng/mL)
Give just the number in ng/mL; leave the unit off.

Exercise: Complete the entry with concentration at 24 h for CNC(=O)c1[nH]c(C(=O)NC2CCC2)cc1O[C@@H](C)c1ccccc1 (stereo in doubt) [Example 101]
Solution: 57

###

assay.text: Beagle dog PK study 2 of Example 101 (HPβCD based formulation, IV), with clinical observations
Type: in vivo
experimental.parameters: beagle, dog, plasma, iv, 1 mg/kg, dog PK study 2, IV 1 mg/kg, HPβCD, 4 h, Test Animal 2; read-out: Plasma concentration
property.name: concentration at 4 h (ng/mL)
Reply with just the number (in ng/mL).

Exercise: For the molecule CNC(=O)c1[nH]c(C(=O)NC2CCC2)cc1O[C@@H](C)c1ccccc1 (stereo in doubt) , give its measured concentration at 4 h value.
Solution: 10.8

###

assay.text: Pharmacokinetics and plasma concentration of Example 101 in Lewis rats after oral administration (CIA study)
Assay type: in vivo, Lewis rat
experimental.parameters: Lewis, rat, plasma, po, 10 mg/kg, oral, day 0, 10 mg/kg, Mean; read-out: MRTInf—obs
property.name: MRT inf (h)
Entry rule: numbers only, all in h.

Exercise: Tell me its MRT inf given CNC(=O)c1[nH]c(C(=O)NC2CCC2)cc1O[C@@H](C)c1ccccc1 (stereo in doubt) as the entry.
Solution: 8.61

###

assay.text: Beagle dog PK study 1 of Example 101 (propylene glycol-based formulation, IV and PO), with clinical observations
Format: in vivo
experimental.parameters: beagle, dog, plasma, iv, 1 mg/kg, dog PK study 1, intravenous, Test Animal 3
Procedure: The purpose of this study was to examine the pharmacokinetics of Example 101 in beagle dogs. […] An oral PK study was also undertaken in Lewis rats—see Experimental Method C. Body weight was recoded prior to dosing, and detailed clinical observations were made prior to dosing and throughout the study, as needed. Subsequently, 17.320 mL Vitamin E TPGS was added, and the solution was vortexed and sonicated. Then, 51.960 mL water was added, and solution was then heated. […]
property.name: AUC(0-t)
Please report the result as a number followed by the unit.

Exercise: Please look at this molecule and report its AUC(0-t): CNC(=O)c1[nH]c(C(=O)NC2CCC2)cc1O[C@@H](C)c1ccccc1 (stereo in doubt) [Example 101]
Solution: 1860 ng·h/mL

###

assay.text: Beagle dog PK study 1 of Example 101 (propylene glycol-based formulation, IV and PO), with clinical observations
Assay type: in vivo
experimental.parameters: beagle, dog, plasma, po, 5 mg/kg, dog PK study 1, oral, mean
property.name: Cmax (ng/mL)
The reply should be a number in ng/mL, with the unit left off.

Exercise: Supply measured Cmax of CNC(=O)c1[nH]c(C(=O)NC2CCC2)cc1O[C@@H](C)c1ccccc1 (stereo in doubt) in your reply.
Solution: 2000

###

assay.text: Sprague-Dawley rat pharmacokinetics, IV and PO cassette dosing
Assay type: in vivo
experimental.parameters: male, Sprague-Dawley, rat, plasma, iv, 1 mg/kg, IV 1 mg/kg, Method 1, read-out: IV T1/2 (converted)
half-life vs 50 min: at or above is Condition met, below is Condition not met.

Exercise: Given the entry CNC(=O)c1[nH]c(C(=O)NC2COC2)cc1OC(C)c1ccc(Cl)cc1F (single isomer, unassigned) , answer whether its half-life meets or surpasses 50 min.
Solution: Condition not met

Exercise: Record CNC(=O)c1[nH]c(C(=O)N[C@H]2CC[C@H](O)CC2)cc1OC(C)c1ccccc1 (single isomer, unassigned) ; criterion: half-life no lower than 50 min. Met?
Solution: Condition met

Exercise: In plain terms: is recorded half-life at least 50 min for `CNC(=O)c1[nH]c(C(=O)NC2CC2)cc1O[C@@H](C)c1ccc(Cl)cc1` ?
Solution: Condition not met

Exercise: Kindly determine if half-life recorded for CNC(=O)c1[nH]c(C(=O)NC2CCC2)cc1O[C@@H](C)c1ccccc1 (stereo in doubt) is above or exactly 50 min.
Solution: Condition met

Exercise: half-life >= 50 min for C#Cc1ccc(C(C)Oc2cc(C(=O)NCC)[nH]c2C(=O)NC)cc1 (single isomer, unassigned) ?
Solution: Condition not met

In the following, a different compound is considered.
Exercise: # bool: half-life of CNC(=O)c1[nH]c(C(=O)NC2CCC2)cc1OC(C)c1ccccc1 (single isomer, unassigned) >= 50 min
Solution: Condition met

###

system.name: BRD4 BD2 (Homo sapiens (Human), UniProt O60885)
assay.text: NanoBRET bromodomain assay, NanoLuc-BRD4-BD2 fusion in HEK293 cells;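 further: tracer displacement BRET read in transfected cells after 2 h compound exposure at 37 °C, signal in milliBRET units corrected against no-tracer background wells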
experimental.parameters: IC50 for BRD4 BD1 divided by IC50 for BRD4 BD2; qualitative if an IC50 is at the upper limit
property.name: Fold selectivity

Sample records with Fold selectivity:
Exercise: Under BRD4 BD2 (Homo sapiens (Human), UniProt O60885), report Fold selectivity for CNC(=O)c1[nH]c(C(=O)NC2CCC(O)CC2)cc1OC(C)c1ccc(Cl)cc1 (single isomer, unassigned)
Solution: XX (Fold >50 and ≤200)

Exercise: # assay system BRD4 BD2 (Homo sapiens (Human), UniProt O60885): give Fold selectivity of `CNC(=O)c1[nH]c(NC(C)=O)cc1O[C@@H](C)c1ccccc1F`
Solution: XX (Fold >50 and ≤200)

Exercise: Report Fold selectivity under test system BRD4 BD2 (Homo sapiens (Human), UniProt O60885) for `CNC(=O)c1[nH]c(-c2cnn(C(F)(F)F)c2)cc1O[C@@H](C)c1ccccc1` .
Solution: XXX (Fold >200)

Exercise: Please look at CCNC(=O)c1cc(OC(c2ccccc2)C(C)C)c(C(=O)NC)[nH]1 (racemic) and tell me its recorded Fold selectivity on BRD4 BD2 (Homo sapiens (Human), UniProt O60885).
Solution: — (Fold ≥0 and ≤2)

Exercise: For BRD4 BD2 (Homo sapiens (Human), UniProt O60885), give Fold selectivity of the listed molecule: CCNC(=O)c1cc(OC(C)c2ccc(C(F)(F)F)cc2)c(C(=O)NC)[nH]1 (racemic)
Solution: X (Fold >2 and ≤50)

Exercise: Report the value of Fold selectivity obtained on BRD4 BD2 (Homo sapiens (Human), UniProt O60885) for CCNC(=O)c1cc(OC(C)c2ccc(C)cc2)c(C(=O)NC)[nH]1 (single isomer, unassigned) [Example 25] .
Solution: XXX (Fold >200)

Exercise: Fill in Fold selectivity for `CNC(=O)c1[nH]c(-c2cc(C)nn2C)cc1O[C@H](C)c1ccccc1` tested with BRD4 BD2 (Homo sapiens (Human), UniProt O60885).
Solution: — (Fold ≥0 and ≤2)

// below: Fold selectivity requested for another molecule
Exercise: State Fold selectivity (BRD4 BD2 (Homo sapiens (Human), UniProt O60885)) of `CNC(=O)c1[nH]c(C(=O)NCCC(F)(F)F)cc1O[C@@H](C)c1ccccc1` .
Solution: X (Fold >2 and ≤50)
